Target: UniProtKB P51531
Experiment: MSD SMARCA2 degradation in A549 cell line
Type: cell-based
Conditions: A549, A549 cells, 24 h
Measured metric: Dmax

# example entries with known answers
Cc1ncsc1-c1ccc(CNC(=O)[C@@H]2C[C@@H](O)CN2C(=O)[C@@H](NC(=O)[C@H]2CC[C@H](N3CCC(N4CCC(n5cc(-c6cc(-c7ccccc7O)nnc6N)cn5)CC4)CC3)CC2)C(C)(C)C)cc1 [I-400]: 70 to 90%
Cc1ncsc1-c1ccc(CNC(=O)[C@@H]2C[C@@H](O)CN2C(=O)[C@@H](NC(=O)CCCCCNCc2cccc(C#Cc3cc(NC(=O)Nc4cc(F)ncc4CO)ccn3)c2)C(C)(C)C)cc1 [I-489]: < 50%
Cc1ncsc1-c1ccc(CNC(=O)[C@@H]2C[C@@H](O)CN2C(=O)[C@@H](NC(=O)CN(C)CC#Cc2cnc(N3C4CCC3CN(c3cc(-c5ccccc5O)nnc3N)C4)nc2)C(C)(C)C)cc1 [I-495]: 70 to 90%
Cc1ncsc1-c1ccc(CNC(=O)[C@@H]2C[C@@H](O)CN2C(=O)[C@@H](NC(=O)[C@H]2CC[C@@H](c3nccc(N4C5CCC4CN(c4cc(-c6ccccc6O)nnc4N)C5)n3)CC2)C(C)(C)C)cc1 [I-362]: 70 to 90%

(Q) For the compound CN(Cc1cccc(C#Cc2cc(NC(=O)Nc3cc(F)ncc3CO)ccn2)c1)CC1CCN(Cc2cccc3c2n(C)c(=O)n3C2CCC(=O)NC2=O)CC1 (centres unmarked) [I-316] , what Dmax is on record?
(A) < 50%

====

Biological target: SMARCA2 (Homo sapiens, UniProt P51531)
Sequence (P51531 whole entry): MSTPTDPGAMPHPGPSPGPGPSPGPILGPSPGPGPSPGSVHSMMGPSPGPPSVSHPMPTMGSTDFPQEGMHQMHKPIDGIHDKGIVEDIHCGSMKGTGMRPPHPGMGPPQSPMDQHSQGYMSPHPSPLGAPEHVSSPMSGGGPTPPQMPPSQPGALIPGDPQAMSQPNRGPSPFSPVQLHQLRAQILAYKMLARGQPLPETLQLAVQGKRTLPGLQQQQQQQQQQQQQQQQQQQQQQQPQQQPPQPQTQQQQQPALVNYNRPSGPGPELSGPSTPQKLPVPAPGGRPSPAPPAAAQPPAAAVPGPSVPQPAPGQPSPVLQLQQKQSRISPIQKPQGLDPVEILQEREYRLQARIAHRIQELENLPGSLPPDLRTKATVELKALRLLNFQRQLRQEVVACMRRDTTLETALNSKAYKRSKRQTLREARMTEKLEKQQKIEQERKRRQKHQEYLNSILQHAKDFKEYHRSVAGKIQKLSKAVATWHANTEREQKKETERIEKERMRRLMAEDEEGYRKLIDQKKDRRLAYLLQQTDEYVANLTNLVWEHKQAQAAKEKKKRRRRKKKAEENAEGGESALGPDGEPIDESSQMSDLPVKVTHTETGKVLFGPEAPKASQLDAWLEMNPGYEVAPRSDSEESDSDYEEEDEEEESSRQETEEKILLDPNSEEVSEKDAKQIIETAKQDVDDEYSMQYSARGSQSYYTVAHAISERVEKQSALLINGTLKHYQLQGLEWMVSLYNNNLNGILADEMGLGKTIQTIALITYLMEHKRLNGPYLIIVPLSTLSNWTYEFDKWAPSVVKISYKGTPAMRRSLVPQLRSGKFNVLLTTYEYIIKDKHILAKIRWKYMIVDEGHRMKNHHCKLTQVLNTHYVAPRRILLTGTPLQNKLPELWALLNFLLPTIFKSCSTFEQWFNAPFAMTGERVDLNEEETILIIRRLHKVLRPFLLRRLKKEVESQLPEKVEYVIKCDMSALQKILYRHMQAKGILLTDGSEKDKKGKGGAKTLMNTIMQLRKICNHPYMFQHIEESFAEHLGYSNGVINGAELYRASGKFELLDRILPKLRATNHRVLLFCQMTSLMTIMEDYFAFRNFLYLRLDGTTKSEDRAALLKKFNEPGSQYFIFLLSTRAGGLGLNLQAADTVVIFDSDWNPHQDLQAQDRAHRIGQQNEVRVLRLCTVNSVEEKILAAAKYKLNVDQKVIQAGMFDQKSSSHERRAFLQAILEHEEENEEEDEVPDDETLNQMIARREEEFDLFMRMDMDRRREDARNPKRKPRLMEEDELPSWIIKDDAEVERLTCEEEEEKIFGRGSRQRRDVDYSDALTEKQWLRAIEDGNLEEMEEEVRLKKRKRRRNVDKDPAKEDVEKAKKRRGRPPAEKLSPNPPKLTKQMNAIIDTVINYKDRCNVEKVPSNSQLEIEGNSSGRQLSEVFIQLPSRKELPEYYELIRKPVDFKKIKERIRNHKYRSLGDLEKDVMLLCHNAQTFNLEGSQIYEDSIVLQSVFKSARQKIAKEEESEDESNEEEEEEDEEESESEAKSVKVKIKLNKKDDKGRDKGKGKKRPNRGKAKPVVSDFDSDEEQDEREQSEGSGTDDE
Assay: MSD SMARCA2 degradation in A549 cell line
Assay type: cell-based
Details: A549, A549 cells, 24 h
Measured metric: Dmax

The examples below pair each entry with its known result.
Cc1ncsc1-c1ccc(CNC(=O)[C@@H]2C[C@@H](O)CN2C(=O)[C@@H](NC(=O)[C@H]2CC[C@@H](c3ccc(CN4CCC(Cn5cc(-c6cc(-c7ccccc7O)nnc6N)cn5)CC4)cc3)CC2)C(C)(C)C)cc1 [I-379]: > 90%
Cc1ncsc1-c1ccc(CNC(=O)[C@@H]2C[C@@H](O)CN2C(=O)[C@@H](NC(=O)[C@H]2CC3(C2)C[C@H](N2CCC(n4cc(-c5cc(-c6ccccc6O)nnc5N)cn4)CC2)C3)C(C)(C)C)cc1 (stereo partly shown) [I-389]: > 90%
Cc1ncsc1-c1ccc(CNC(=O)[C@@H]2C[C@@H](O)CN2C(=O)[C@@H](NC(=O)CCCN(C)CC#Cc2cnc(N3C4CCC3CN(c3cc(-c5ccccc5O)nnc3N)C4)nc2)C(C)(C)C)cc1 [I-497]: < 50%
Cc1ncsc1-c1ccc(CNC(=O)[C@@H]2C[C@@H](O)CN2C(=O)[C@@H](NC(=O)C2CCC(CN3CCC(n4cc(-c5cc(-c6ccccc6O)nnc5N)cn4)CC3)CC2)C(C)(C)C)cc1 (stereo partly shown) [I-327]: > 90%

(Q) Consider the molecule shown here: Cc1ncsc1-c1ccc(CNC(=O)[C@@H]2C[C@@H](O)CN2C(=O)[C@@H](NC(=O)[C@H]2CC[C@H](c3cnc(N4C5CCC4CN(c4cc(-c6ccccc6O)nnc4N)C5)nc3)CC2)C(C)(C)C)cc1 [I-337] What is its recorded Dmax?
(A) > 90%

(Q) Fill in the blank: the reported Dmax of Cc1ncsc1-c1ccc(CNC(=O)[C@@H]2C[C@@H](OC(=O)[C@H](C)N)CN2C(=O)[C@@H](NC(=O)[C@H]2CC[C@H](c3cnc(N4C5CCC4CN(c4cc(-c6ccccc6O)nnc4N)C5)nc3)CC2)C(C)(C)C)cc1 [I-409] is ____.
(A) > 90%

(Q) I have this molecule here, Cn1c(=O)n(C2CCC(=O)NC2=O)c2ccc(CCCOCCCCN3CCN(Cc4cccc(C#Cc5cc(NC(=O)Nc6cc(F)ncc6CO)ccn5)c4)CC3)cc21 (stereo not shown) [I-314] , and I need its recorded Dmax.
(A) < 50%

(Q) For the molecule shown here, Cc1ncsc1-c1ccc(CNC(=O)[C@@H]2C[C@@H](O)CN2C(=O)[C@@H](NC(=O)N[C@H]2CC[C@H](c3cnc(N4C5CCC4CN(c4cc(-c6ccccc6O)nnc4N)C5)nc3)CC2)C(C)(C)C)cc1 [I-333] , give the reported Dmax.
(A) < 50%

(Q) Could you share which Dmax value was measured for Nc1nnc(-c2ccccc2O)cc1-c1cnn(C2CCN([C@H]3CC[C@H](CNc4ccc5c(c4)C(=O)N(C4CCC(=O)NC4=O)C5=O)CC3)CC2)c1 (stereo partly shown) [I-325] ?
(A) 70 to 90%

(Q) I have this molecule here, Cc1ncsc1-c1ccc(CNC(=O)[C@@H]2C[C@@H](O)CN2C(=O)[C@@H](NC(=O)CCCN2CCCC(n3cc(-c4cc(-c5ccccc5O)nnc4N)cn3)C2)C(C)(C)C)cc1 (stereo partly shown) [I-454] , and I need its recorded Dmax.
(A) < 50%

(Q) Quick check: Dmax of Cc1ncsc1-c1ccc(CNC(=O)[C@@H]2C[C@@H](O)CN2C(=O)[C@@H](NC(=O)[C@H]2C[C@H](N3CCC(c4cnc(N5C6CCC5CN(c5cc(-c7ccccc7O)nnc5N)C6)nc4)CC3)C2)C(C)(C)C)cc1 [I-356] ?
(A) 70 to 90%

(Q) Consider the molecule shown here: Cc1ncsc1-c1ccc(CNC(=O)[C@@H]2C[C@@H](O)CN2C(=O)[C@@H](NC(=O)N2CCC(N3CCC(c4cnc(N5C6CCC5CN(c5cc(-c7ccccc7O)nnc5N)C6)nc4)CC3)CC2)C(C)(C)C)cc1 [I-350] What is its recorded Dmax?
(A) < 50%

(Q) Can you look up the measured Dmax of Cc1ncsc1-c1ccc(CNC(=O)[C@@H]2C[C@@H](O)CN2C(=O)[C@@H](NC(=O)c2ccc(CCCCCN3CCC(Cn4cc(-c5cc(-c6ccccc6O)nnc5N)cn4)CC3)cc2)C(C)(C)C)cc1 [I-505] for me?
(A) > 90%

====

DC50: recorded values
Target: UniProtKB P51531
Experiment: MSD SMARCA2 degradation in NCI-H1299 cell line (24 h)
Type: cell-based
Design: HC: NCI-H1299 cells treated with DMSO; host or cells: NCI-H1299
Settings: NCI-H1299 cells, read-out: SMARCA2 MSD H1299 degradation 24 h: External Abs-DC50

Worked examples, 4 molecules total:
COc1cc(C(=O)NCCCN2CCN(Cc3ccc(-c4cc(-c5ccccc5O)nnc4N)cc3)CC2)ccc1NC(=O)[C@@H]1N[C@@H](CC(C)(C)C)[C@](C#N)(c2ccc(Cl)cc2F)[C@H]1c1cccc(Cl)c1F [I-232]: > 1000 nM
CN1C(=O)CCC(n2c(=O)n(C)c3c(CCCOCCOCCNCc4ccc(N5CCN(c6cc(-c7ccccc7O)nnc6N)CC5)cc4)cccc32)C1=O (stereo not drawn) [I-113]: > 1000 nM
Cn1c(=O)n(C2CCC(=O)NC2=O)c2ccc(CCCCCCCN3CCCC(n4cc(-c5cc(-c6ccccc6O)nnc5N)cn4)C3)cc21 (stereo not drawn) [I-180]: > 1000 nM
Cn1c(=O)n(C2CCC(=O)NC2=O)c2cccc(CCCCOc3ccc(CN4CCN(c5cc(-c6ccccc6O)nnc5N)CC4)cc3)c21 (stereo not drawn) [I-91]: > 1000 nM

(Q) // returns reported DC50 for input Cc1ncsc1-c1ccc(CNC(=O)[C@@H]2C[C@@H](O)CN2C(=O)[C@@H](NC(=O)[C@H]2CC3(C2)C[C@H](N2CCC(n4cc(-c5cc(-c6ccccc6O)nnc5N)cn4)CC2)C3)C(C)(C)C)cc1 (stereo partly drawn) [I-389]
(A) 100 to 500 nM

(Q) State the recorded DC50 for this entry: Cn1c(=O)n(C2CCC(=O)NC2=O)c2ccc(CCCCCCCc3cn(Cc4cccc(N5C[C@H]6C[C@@H]5CN6/C=C/C(=O)c5ccccc5O)n4)nn3)cc21 (stereo partly drawn) [I-47]
(A) > 1000 nM

(Q) Field request: DC50 | item: Cn1c(=O)n(C2CCC(=O)NC2=O)c2ccc(CCCCCCCCc3cccc(CN4CCN(c5cc(-c6ccccc6O)nnc5N)CC4)c3)cc21 (stereo not drawn) [I-152]
(A) > 1000 nM

(Q) Which DC50 reading was recorded for the molecule Cn1c(=O)n(C2CCC(=O)NC2=O)c2cccc(CCCOc3cccc(CN4CCN(c5cc(-c6ccccc6O)nnc5N)CC4)c3)c21 (stereo not drawn) [I-95] ?
(A) > 1000 nM

(Q) Bench note: what DC50 did Cn1c(=O)n(C2CCC(=O)NC2=O)c2cccc(CCCOc3ccc(CN4CCN(c5cc(-c6ccccc6O)nnc5N)CC4)cc3)c21 (stereo not drawn) [I-90] show?
(A) > 1000 nM

====

Biological target: SMARCA4 (Homo sapiens, UniProt P51532)
Construct: SMARCA2 and SMARCA4 protein degradation in MV4-11 cells; endogenous in cells; host or cells: MV4-11
Sequence (P51532 whole entry): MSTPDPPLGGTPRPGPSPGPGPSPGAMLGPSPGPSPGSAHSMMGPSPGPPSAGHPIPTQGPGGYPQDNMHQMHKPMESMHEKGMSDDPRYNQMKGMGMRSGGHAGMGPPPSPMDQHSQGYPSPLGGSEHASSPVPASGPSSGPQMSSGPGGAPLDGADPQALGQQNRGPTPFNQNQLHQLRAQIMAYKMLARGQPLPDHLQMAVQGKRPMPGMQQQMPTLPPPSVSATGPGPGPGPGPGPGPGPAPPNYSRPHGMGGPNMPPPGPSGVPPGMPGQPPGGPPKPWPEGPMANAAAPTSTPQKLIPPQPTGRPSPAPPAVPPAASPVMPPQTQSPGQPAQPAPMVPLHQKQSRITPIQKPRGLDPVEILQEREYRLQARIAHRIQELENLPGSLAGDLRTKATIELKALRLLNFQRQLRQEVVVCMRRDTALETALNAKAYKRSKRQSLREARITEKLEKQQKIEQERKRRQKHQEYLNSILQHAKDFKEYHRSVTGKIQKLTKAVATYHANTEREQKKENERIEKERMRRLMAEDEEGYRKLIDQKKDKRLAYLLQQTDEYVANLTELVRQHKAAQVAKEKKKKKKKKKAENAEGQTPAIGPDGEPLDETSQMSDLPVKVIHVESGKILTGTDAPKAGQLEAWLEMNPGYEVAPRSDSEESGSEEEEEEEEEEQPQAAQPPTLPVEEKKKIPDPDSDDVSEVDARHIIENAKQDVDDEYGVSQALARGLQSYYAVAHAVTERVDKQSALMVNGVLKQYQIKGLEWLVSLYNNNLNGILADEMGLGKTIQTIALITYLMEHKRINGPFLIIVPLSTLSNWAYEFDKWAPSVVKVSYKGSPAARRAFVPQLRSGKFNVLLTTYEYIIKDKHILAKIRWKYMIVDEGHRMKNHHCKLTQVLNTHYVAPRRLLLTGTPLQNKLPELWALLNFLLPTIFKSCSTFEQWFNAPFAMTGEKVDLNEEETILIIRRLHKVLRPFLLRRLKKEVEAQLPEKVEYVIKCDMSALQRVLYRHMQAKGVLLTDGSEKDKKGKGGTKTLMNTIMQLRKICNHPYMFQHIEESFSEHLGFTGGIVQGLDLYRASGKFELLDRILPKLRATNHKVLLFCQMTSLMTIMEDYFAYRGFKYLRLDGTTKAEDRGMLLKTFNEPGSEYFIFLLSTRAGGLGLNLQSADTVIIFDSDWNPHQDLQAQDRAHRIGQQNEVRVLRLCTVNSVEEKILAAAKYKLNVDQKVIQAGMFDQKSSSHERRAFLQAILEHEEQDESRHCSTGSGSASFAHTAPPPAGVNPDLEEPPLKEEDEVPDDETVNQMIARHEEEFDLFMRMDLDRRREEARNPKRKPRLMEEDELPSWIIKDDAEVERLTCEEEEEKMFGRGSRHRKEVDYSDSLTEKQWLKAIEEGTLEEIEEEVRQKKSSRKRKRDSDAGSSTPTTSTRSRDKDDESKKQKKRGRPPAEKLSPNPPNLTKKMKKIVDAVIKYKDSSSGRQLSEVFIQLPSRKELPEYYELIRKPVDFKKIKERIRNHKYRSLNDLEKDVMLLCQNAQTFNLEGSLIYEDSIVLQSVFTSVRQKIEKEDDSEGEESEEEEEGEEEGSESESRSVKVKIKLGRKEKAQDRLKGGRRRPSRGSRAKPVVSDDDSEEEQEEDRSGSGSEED
Experiment: SMARCA4 Western blot MV4-11 degradation
Type: cell-based
Conditions: MV4-11, MV4-11 cells, 24 h, read-out: SMARCA4 WB MV411 degradation 24 h: Average Dmax %
Method: Cells were seeded into 6-well plates (MV4-11: 4×10^6 cells/well/1 ml) and 1 ml of 2× compound solution was added into the well to make the final concentration and the plates were mixed well and incubated for 24 hours (No cytotoxicity was observed). The cell were collected with media and spun at 3000 rpm for 5 minutes. […] The membrane was washed three times with TBST, 5 minutes each and lastly the LiCOR was read. […]
Quick reference: Dmax of the listed items.

Here is how some compounds turned out for Dmax.
Cc1ncsc1-c1ccc(CNC(=O)[C@@H]2C[C@@H](O)CN2C(=O)[C@@H](NC(=O)CCCN2CCC(n3cc(-c4cc(-c5ccccc5O)nnc4N)cn3)CC2)C(C)(C)C)cc1 [I-459]: < 50%
Cc1ncsc1-c1ccc(CNC(=O)[C@@H]2C[C@@H](O)CN2C(=O)[C@@H](NC(=O)[C@H]2CCN(Cc3cnc(N4C5CCC4CN(c4cc(-c6ccccc6O)nnc4N)C5)nc3)C2)C(C)(C)C)cc1 [I-387]: > 90%

(Q) Name the recorded Dmax for Cc1ncsc1-c1ccc(CNC(=O)[C@@H]2C[C@@H](O)CN2C(=O)[C@@H](NC(=O)[C@H]2CC[C@H](c3cnc(N4C5CCC4CN(c4cc(-c6ccccc6O)nnc4N)C5)nc3C)CC2)C(C)(C)C)cc1 [I-412] .
(A) > 90%

(Q) If you can, please state the reported Dmax value of Cc1ncsc1-c1ccc(CNC(=O)[C@@H]2C[C@@H](O)CN2C(=O)[C@@H](NC(=O)[C@H]2CC=C(c3cnc(N4C5CCC4CN(c4cc(-c6ccccc6O)nnc4N)C5)nc3)CC2)C(C)(C)C)cc1 [I-407] .
(A) > 90%

(Q) # input compound: Cn1c(=O)n(C2CCC(=O)NC2=O)c2ccc([C@H]3CC[C@@H](N4CCC(c5nccc(N6C7CCC6CN(c6cc(-c8ccccc8O)nnc6N)C7)n5)CC4)CC3)cc21 (some centres unmarked) [I-279] ; wanted: its Dmax
(A) > 90%
